System: blood-sugar
Assay: Blood-sugar lowering activity in starved female rats after oral administration
Format: in vivo
Settings: Rattus norvegicus, po, 5 mg/kg orally, 1 hour, n.s. = not statistically significant, read-out: Blood-sugar lowering activity, percent as compared with the controls
# YES = change in vivo at 5 mg/kg below -40% (exclusive); NO = change in vivo at 5 mg/kg at/above -40%

# count of solved cases: 8
CC1CCCCN1c1ccccc1C(NC(=O)Cc1ccc(C(=O)O)cc1)c1ccccc1 (centres unmarked) = NO
CCCC(NC(=O)Cc1ccc(C(=O)OCC(O)CO)cc1)c1ccccc1N1CCCCC1 (centres unmarked) = YES
Cc1ccc(C(NC(=O)Cc2ccc(C(=O)O)cc2)c2ccccc2N2CCCCC2)cc1 (centres unmarked) = NO
CCCC(NC(=O)Cc1ccc(C(=O)O)cc1)c1ccccc1N1CCCC1 (centres unmarked) = YES
O=C(Cc1ccc(C(=O)O)cc1)NC(c1ccc(Cl)cc1)c1ccccc1N1CCCCC1 (centres unmarked) = NO
O=C(Cc1ccc(C(=O)O)cc1)NC(c1ccc(F)cc1)c1ccccc1N1CCCCC1 (centres unmarked) = NO
Cc1cccc(C(C)NC(=O)Cc2ccc(C(=O)O)cc2)c1N1CCCCC1 (centres unmarked) = NO
CC1CCCN(c2ccccc2C(NC(=O)Cc2ccc(C(=O)O)cc2)c2ccccc2)C1 (centres unmarked) = NO

**Q:** Consider CC(NC(=O)Cc1ccc(C(=O)O)cc1)c1ccccc1N1CCCCC1 (racemic) . Does its change in vivo at 5 mg/kg lie strictly below -40%?
**A:** YES

**Q:** API: query returns whether the compound falls strictly under -40% in change in vivo at 5 mg/kg. Query: Cc1ccc(C(NC(=O)Cc2ccc(C(=O)O)cc2)c2ccccc2)c(N2CCCCC2)c1 (centres unmarked)
**A:** NO

====

Test: Acute toxicity in female and male mice after oral administration of a single dose
Format: in vivo
Conditions: mouse, in vivo, observation time 14 days, read-out: Peroral Toxicity
property.label: LD50 at 336 h

Some compounds with recorded LD50 at 336 h:
CC/C=C(/NC(=O)Cc1ccc(C(=O)O)cc1)c1ccccc1N1CCCCC1 [C] = > 2000 mg/kg
O=C(Cc1ccc(C(=O)O)cc1)NC(c1ccc(F)cc1)c1ccccc1N1CCCCC1 (stereo not drawn) [AC] = > 1000 mg/kg
Cc1ccc(C(NC(=O)Cc2ccc(C(=O)O)cc2)c2ccccc2N2CCCCC2)cc1 (stereo not drawn) [AA] = > 1000 mg/kg
O=C(Cc1ccc(C(=O)O)cc1)NC(c1ccccn1)c1ccccc1N1CCCCC1 (stereo not drawn) [AG] = > 1000 mg/kg

Now for another entry.
**Q:** State the recorded LD50 at 336 h for this entry: CCCC(NC(=O)Cc1ccc(C(=O)O)cc1)c1ccccc1N1CCCCC1 (racemic) [J]
**A:** > 2000 mg/kg

====

Test system: mice
Assay: Acute toxicity in female and male mice after oral administration of a single dose
Type: in vivo
Conditions: observation time 14 days
property.label: animals died

CC/C=C(\NC(=O)Cc1ccc(C(=O)O)cc1)c1ccccc1N1CCCCC1 [A] = 0 out of 6

**Q:** Which value of animals died has been reported for O=C(Cc1ccc(C(=O)O)cc1)NC(c1ccccc1)c1ccccc1N1CCCCC1 (racemic) [AV] in the records?
**A:** 0 out of 10

**Q:** Entry CC(NC(=O)Cc1ccc(C(=O)O)cc1)c1ccccc1N1CCCCC1 (racemic) [AT] : reported animals died = ?
**A:** 1 out of 10

**Q:** Look up animals died: Cc1ccc(C(NC(=O)Cc2ccc(C(=O)O)cc2)c2ccccc2N2CCCCC2)cc1 (stereo not shown) [AA]
**A:** 0 out of 10

**Q:** For the molecule shown here, O=C(Cc1ccc(C(=O)O)cc1)NC(c1ccc(Cl)cc1)c1ccccc1N1CCCCC1 (stereo not shown) [AE] , give the reported animals died.
**A:** 0 out of 10

**Q:** So what does the record say about animals died for Cc1cccc(C(NC(=O)Cc2ccc(C(=O)O)cc2)c2ccccc2N2CCCCC2)c1 (stereo not shown) [AB] ?
**A:** 0 out of 10

**Q:** Look at this molecule and give its reported animals died. O=C(Cc1ccc(C(=O)O)cc1)NC(c1ccccc1F)c1ccccc1N1CCCCC1 (stereo not shown) [AD]
**A:** 0 out of 10

====

Tested on: blood-sugar
Assay: Blood-sugar lowering activity in starved female rats after oral administration
Assay type: in vivo
Conditions: Rattus norvegicus, po, 5 mg/kg orally, 1 hour, n.s. = not statistically significant, read-out: Blood-sugar lowering activity, percent as compared with the controls
Quick reference: change in vivo at 5 mg/kg of the listed items.
Please provide the amount together with its unit, number first.

CCCC(NC(=O)Cc1ccc(CO)cc1)c1ccccc1N1CCCCC1 (stereo not drawn) = -38%
CCCC(NC(=O)Cc1ccc(CC(=O)O)cc1)c1ccccc1N1CCCCC1 (stereo not drawn) = -49%

Turning now to a further compound:
**Q:** Item CCCC(NC(=O)Cc1ccc(C(=O)O)cc1)c1ccc(F)cc1N1CCCCC1 (stereo not drawn) has what recorded change in vivo at 5 mg/kg?
**A:** -45%

====

Tested on: mice
Assay: Acute toxicity in female and male mice after oral administration of a single dose
Type: in vivo
Settings: observation time 14 days
# animals died values compiled below

CCCC(NC(=O)Cc1ccc(C(=O)O)cc1)c1ccccc1N1CCCCC1 (racemic) = 0 out of 10
CC(C)=C(NC(=O)Cc1ccc(C(=O)O)cc1)c1ccccc1N1CCCCC1 = 0 out of 6
O=C(Cc1ccc(C(=O)O)cc1)NC(c1ccc(F)cc1)c1ccccc1N1CCCCC1 (centres unmarked) = 0 out of 10
CC/C=C(/NC(=O)Cc1ccc(C(=O)O)cc1)c1ccccc1N1CCCCC1 = 0 out of 6

Shift focus to the following entry.
**Q:** Give the measured animals died of O=C(Cc1ccc(C(=O)O)cc1)NC(c1ccccn1)c1ccccc1N1CCCCC1 (centres unmarked) .
**A:** 0 out of 10

====

Test system: blood-sugar
Test: Blood-sugar lowering activity in starved female rats after oral administration
Assay type: in vivo
Settings: Rattus norvegicus, po, 5 mg/kg orally, 1 hour, n.s. = not statistically significant, read-out: Blood-sugar lowering activity, percent as compared with the controls
property.label: change in vivo at 5 mg/kg (%)
Quick note: give the figure in %, leave out the unit.

CCCC(NC(=O)Cc1ccc(C(=O)O)cc1)c1ccc(OC)cc1N1CCCCC1 (centres unmarked) [W] = -46
O=C(Cc1ccc(C(=O)O)cc1)N/C(=C\Cc1ccccc1)c1ccccc1N1CCCCC1 [F] = -43
CCCCCC(NC(=O)Cc1ccc(C(=O)O)cc1)c1ccccc1N1CCCCC1 (centres unmarked) [N] = -42
Cc1cccc(N2CCCCC2)c1C(NC(=O)Cc1ccc(C(=O)O)cc1)c1ccccc1 (centres unmarked) [AN] = -39

Continue with the next compound.
**Q:** Form field: reported change in vivo at 5 mg/kg of CCCC(NC(=O)Cc1ccc(C(=O)OCC)cc1)c1ccccc1N1CCCCC1 (single isomer, unassigned; (+)) [L]
**A:** -42

====

// change in vivo at 10 mg/kg lookup, one value per entry
Tested on: blood-sugar
Test: Blood-sugar lowering activity in starved female rats after oral administration
Type: in vivo
Details: Rattus norvegicus, po, 10 mg/kg orally (footnote *), 3 hours, n.s. = not statistically significant, read-out: Blood-sugar lowering activity, percent as compared with the controls
Procedure: The blood-sugar lowering activity of the test compounds was determined in home-bred female rats with weights of from 180 to 220 grams. Twenty-four hours before starting the test the animals were starved. […] Blood was taken from the retroorbital plexus vein before administration of the test compounds as well as each of 1, 2, 3, and 4 hours after administration. […] The glucose content was determined in the supernatant according to the Hexokinase method by means of an analysis photometer. […]
Response body: numeric value in %, unit text excluded.

Known results for compounds:
C=C(NC(=O)Cc1ccc(C(=O)O)cc1)c1ccccc1N1CCCCCCCC1 [X] = -17
O=C(O)C=Cc1ccc(CC(=O)NC(c2ccccc2)c2ccccc2N2CCCCC2)cc1 (stereo not shown) [AK] = -40
O=C(O)CCc1ccc(CC(=O)NC(c2ccccc2)c2ccccc2N2CCCCC2)cc1 (stereo not shown) [AL] = -38

Next up:
**Q:** What value of change in vivo at 10 mg/kg has been recorded for this entry: O=C(Cc1ccc(C(=O)O)cc1)NC(c1ccccn1)c1ccccc1N1CCCCC1 (stereo not shown) [AG]
**A:** -36

====

System: blood-sugar
Experiment: Blood-sugar lowering activity in starved female rats after oral administration
Format: in vivo
Conditions: Rattus norvegicus, po, 5 mg/kg orally, 1 hour, n.s. = not statistically significant, read-out: Blood-sugar lowering activity, percent as compared with the controls
property.label: change in vivo at 5 mg/kg (%)
Note: unit % is implicit; provide only the numeric part.

CCCC/C=C(\NC(=O)Cc1ccc(C(=O)OCC)cc1)c1ccccc1N1CCCCC1 = -46
N#CC(NC(=O)Cc1ccc(C(=O)O)cc1)c1ccccc1N1CCCCC1 (stereo not shown) = -28
COCC(NC(=O)Cc1ccc(C(=O)O)cc1)c1ccccc1N1CCCCC1 (stereo not shown) = -49

**Q:** # query: change in vivo at 5 mg/kg of entry CC/C=C(\NC(=O)Cc1ccc(C(=O)OCC)cc1)c1ccccc1N1CCCCC1
**A:** -44

**Q:** Consider the compound O=C(Cc1ccc(C(=O)O)cc1)NC(c1ccccc1)c1ccc(Cl)cc1N1CCCCC1 (stereo not shown) and give its measured change in vivo at 5 mg/kg.
**A:** -34

**Q:** # query: change in vivo at 5 mg/kg of entry CC(NC(=O)Cc1ccc(C(=O)O)cc1)c1cccc(Cl)c1N1CCCCC1 (stereo not shown)
**A:** -32

**Q:** Item O=C(Cc1ccc(C(=O)O)cc1)NC(c1ccccc1)c1ccccc1N1CCCCC1 (racemic) has what recorded change in vivo at 5 mg/kg?
**A:** -44

**Q:** Which change in vivo at 5 mg/kg is listed for O=C(Cc1ccc(C(=O)O)cc1)NC(c1ccncc1)c1ccccc1N1CCCCC1 (stereo not shown) ?
**A:** -41

**Q:** Any idea what its change in vivo at 5 mg/kg is? The compound is O=C(Cc1ccc(C(=O)O)cc1)NC(c1ccccc1)c1c(Cl)cccc1N1CCCCC1 (stereo not shown)
**A:** -44

**Q:** Reported change in vivo at 5 mg/kg, compound O=C(Cc1ccc(C(=O)O)cc1)NC(c1ccccc1F)c1ccccc1N1CCCCC1 (stereo not shown) : ____
**A:** -28
